Data credit: paper PMC9367672

Experiment: Enzyme kinetics of toddalolactone metabolism in rat liver microsomes (oxidative metabolism and glucuronidation)
Assay type: in vitro ADME
Details: rat, liver microsomes, pH 7.4, RLMs; glucuronide metabolism; P5 formation; Vmax/Km

Given Smiles: COc1cc2oc(=O)ccc2c(OC)c1C[C@@H](O)C(C)(C)O
microsomal CLint: 0.69 µL/min/mg

* * *

Assay: Metabolic stability assessment in monkey liver microsomes
Type: in vitro ADME
Conditions: pH 7.4, MLMs, UGT incubation system, toddalolactone 20 μM, 0-90 min, read-out: T1/2 value

Given Smiles: COc1cc2oc(=O)ccc2c(OC)c1C[C@@H](O)C(C)(C)O
Unit: h
half-life at 20 μM: 1.1
